target: NK1 receptor (Homo sapiens)
Sequence (P25103 whole entry, species assumed): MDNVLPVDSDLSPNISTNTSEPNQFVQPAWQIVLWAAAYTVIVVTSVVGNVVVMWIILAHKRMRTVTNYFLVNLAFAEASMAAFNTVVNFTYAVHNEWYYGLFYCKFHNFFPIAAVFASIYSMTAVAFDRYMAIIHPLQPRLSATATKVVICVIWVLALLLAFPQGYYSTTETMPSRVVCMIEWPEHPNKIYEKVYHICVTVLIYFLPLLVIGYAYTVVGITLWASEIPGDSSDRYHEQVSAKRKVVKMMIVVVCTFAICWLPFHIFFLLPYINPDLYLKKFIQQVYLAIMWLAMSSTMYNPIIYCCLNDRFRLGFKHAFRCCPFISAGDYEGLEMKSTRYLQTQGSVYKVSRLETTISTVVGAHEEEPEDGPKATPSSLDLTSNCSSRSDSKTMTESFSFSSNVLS
recorded.metric: Ki (nM)

smi=CCC(=O)[C@]1(n2cn[nH]c2=O)CC[C@@](CO[C@H](C)c2cc(C(F)(F)F)cc(C(F)(F)F)c2)(c2ccccc2)NC1 result_number=0.1
smi=C[C@@H](OC[C@@]1(c2ccccc2)CC[C@](C#N)(N2CCOC2=O)CN1)c1cc(C(F)(F)F)cc(C(F)(F)F)c1 result_number=0.12
smi=C[C@@H](OC[C@@]1(c2ccccc2)CC[C@](CO)(n2cn[nH]c2=O)CN1)c1cc(C(F)(F)F)cc(C(F)(F)F)c1 result_number=0.12

* * *

biological target: NK1 receptor (Homo sapiens)
pKi: −log10 of the molar value.
recorded.metric: pKi

Solved cases below.
smi=C[C@@H](OC[C@@]1(c2ccccc2)CC[C@](C#N)(n2cn[nH]c2=O)CN1)c1cc(C(F)(F)F)cc(C(F)(F)F)c1 result_number=9.55
smi=CCNC(=O)C[C@]1(n2cn[nH]c2=O)CC[C@@](CO[C@H](C)c2cc(C(F)(F)F)cc(C(F)(F)F)c2)(c2ccccc2)NC1 result_number=9.89

(P) C[C@@H](OC[C@@]1(c2ccccc2)CC[C@](C#N)(N2CCC2=O)CN1)c1cc(C(F)(F)F)cc(C(F)(F)F)c1
(Q) C[C@@H](OC[C@@]1(c2ccccc2)CC[C@](CC(N)=O)(n2cn[nH]c2=O)CN1)c1cc(C(F)(F)F)cc(C(F)(F)F)c1
Out of P and Q , name the one with the higher pKi. Refer to your chosen item by its label in the answer.
Q
